Tested on: HCT-116 colon
assay.summary: NCI tumour cell line growth inhibition, 48 h
readout.name: TGI

The following molecules have reported results that may help.
O=C1C(Cl)=C(Nc2cccc(Cl)c2)C(=O)N1Cc1ccccc1Cl ... 4.41 µM
COc1cc(C2c3cc(O)c(OC)cc3C3OCC2C3CO)ccc1O (configuration not stated) ... > 100 µM
c1cc(Sc2nc(Sc3ccncc3)nc(Sc3ccncc3)n2)ccn1 ... > 100 µM
COc1ccc(/C=C/C(=O)c2ccc(SC)cc2)cc1OC ... 10.1 µM
Oc1cc(-c2ccccc2)cn2c1nc1ccccc12 ... > 100 µM

Q: Requested read-out TGI, target or system HCT-116 colon, entry c1ccc2c(c1)nc1n2CCCn2ccnc2-1
Result: > 100 µM

Q: Requested read-out TGI, target or system HCT-116 colon, entry COc1c(C)c2c(c(=O)c3c(C)cccc3n2C)c2c1c(=O)c1c(C)cccc1n2C
Result: > 10 µM
